tested-system: SIRT1 (Homo sapiens, UniProt Q96EB6)
experiment-notes: Mass spectrometry based SIRT1 deacetylation assay (activation)
Format: biochemical
condition-label: 10 nM SIRT1, 0.5 μM peptide substrate, 120 μM βNAD+, 25 min at 25° C.
measurement-label: EC1.5 (concentration of test compound that results in 150% activation of SIRT1)

The examples below pair each entry with its known result.
compound | result
Cn1ccc(C(=O)Nc2cccc3ccc(-c4cccc(C(F)(F)F)c4)nc23)n1 | A (EC1.5<1.0 uM)
Cc1cc(-c2ccc3cccc(C(=O)Nc4ccccn4)c3n2)no1 | C (EC1.5>25 uM)
O=C(Nc1cccc2ccc(-c3ccccc3)nc12)C1CCNCC1 | C (EC1.5>25 uM)
O=C(Nc1ncnc2ccc(-c3cccc(OC(F)(F)F)c3)nc12)c1cccnc1 | B (EC1.5 1-25 uM)
Cc1csc(NC(=O)c2cccc3cnc(-c4cccnc4)nc23)n1 | C (EC1.5>25 uM)
COc1cccc(C(=O)Nc2cccc3ccc(-c4cccc(C(F)(F)F)c4)nc23)c1 | B (EC1.5 1-25 uM)

Task: What does the data say about its EC1.5 (concentration of test compound that results in 150% activation of SIRT1)? Entry: O=C(Nc1ncc(CN2CCOCC2)s1)c1cccc2ccc(-c3cccc(OC(F)(F)F)c3)nc12
Output: A (EC1.5<1.0 uM)

Task: Cool, now O=C(Nc1ccccc1)c1cccc2ccc(-c3cccc(OC(F)(F)F)c3)nc12
Output: B (EC1.5 1-25 uM)

* * *

tested-system: SIRT1 (Homo sapiens, UniProt Q96EB6)
experiment-notes: Mass spectrometry based SIRT1 deacetylation assay (activation)
Type: biochemical
condition-label: 10 nM SIRT1, 0.5 μM peptide substrate, 120 μM βNAD+, 25 min at 25° C.
measurement-label: EC1.5 (concentration of test compound that results in 150% activation of SIRT1)

Some entries whose results are on file:
compound | tested-system | result
FC(F)(F)c1cccc(-c2ccc3cccc(CNc4nccs4)c3n2)c1 | SIRT1 (Homo sapiens, UniProt Q96EB6) | C (EC1.5>25 uM)
O=C(Nc1cccc(CN2CCOCC2)c1)c1cccc2ccc(-c3cccc(C(F)F)c3)nc12 | SIRT1 (Homo sapiens, UniProt Q96EB6) | A (EC1.5<1.0 uM)
O=C(Nc1cccc2ccc(-c3cccc(C(F)(F)F)c3)nc12)c1cccc(OC[C@@H](O)CO)n1 | SIRT1 (Homo sapiens, UniProt Q96EB6) | A (EC1.5<1.0 uM)
O=C(Nc1ccccn1)Nc1cccc2ccc(-c3cccc(OC(F)(F)F)c3)nc12 | SIRT1 (Homo sapiens, UniProt Q96EB6) | A (EC1.5<1.0 uM)
Cc1cnc(NC(=O)c2cccc3ccc(-c4cccnc4)nc23)s1 [Compound 225] | SIRT1 (Homo sapiens, UniProt Q96EB6) | C (EC1.5>25 uM)
O=C(Nc1ccncc1)c1cccc2ccc(-c3cccnc3)nc12 | SIRT1 (Homo sapiens, UniProt Q96EB6) | C (EC1.5>25 uM)
Cc1csc(NC(=O)c2cccc3cnc(-c4cccc(N5CCOCC5)c4)nc23)n1 | SIRT1 (Homo sapiens, UniProt Q96EB6) | A (EC1.5<1.0 uM)
O=C(Nc1cccc2ccc(-c3cccc(OC(F)(F)F)c3)nc12)c1ccccc1 | SIRT1 (Homo sapiens, UniProt Q96EB6) | C (EC1.5>25 uM)
O=S(=O)(Nc1cccnc1)Nc1cccc2ccc(-c3cccc(OC(F)(F)F)c3)nc12 | SIRT1 (Homo sapiens, UniProt Q96EB6) | C (EC1.5>25 uM)
O=C(Nc1nccs1)c1cccc2cnc(-c3cccnc3)nc12 | SIRT1 (Homo sapiens, UniProt Q96EB6) | C (EC1.5>25 uM)

Task: EC1.5 (concentration of test compound that results in 150% activation of SIRT1) lookup needed for CS(=O)(=O)c1cccc(-c2ccc3cccc(NCc4cccnc4)c3n2)c1 , thanks.
Output: C (EC1.5>25 uM)

Task: Next compound: O=C(Nc1nc2ccccc2s1)c1cccc2ccc(-c3cccc(C(F)(F)F)c3)nc12
Output: A (EC1.5<1.0 uM)

Task: Next entry: O=C(Nc1cccnn1)c1cccc2ccc(-c3cccc(N4CCOCC4)c3)nc12
Output: A (EC1.5<1.0 uM)

* * *

tested-system: SIRT1 (Homo sapiens)
Sequence (Q96EB6 1-747): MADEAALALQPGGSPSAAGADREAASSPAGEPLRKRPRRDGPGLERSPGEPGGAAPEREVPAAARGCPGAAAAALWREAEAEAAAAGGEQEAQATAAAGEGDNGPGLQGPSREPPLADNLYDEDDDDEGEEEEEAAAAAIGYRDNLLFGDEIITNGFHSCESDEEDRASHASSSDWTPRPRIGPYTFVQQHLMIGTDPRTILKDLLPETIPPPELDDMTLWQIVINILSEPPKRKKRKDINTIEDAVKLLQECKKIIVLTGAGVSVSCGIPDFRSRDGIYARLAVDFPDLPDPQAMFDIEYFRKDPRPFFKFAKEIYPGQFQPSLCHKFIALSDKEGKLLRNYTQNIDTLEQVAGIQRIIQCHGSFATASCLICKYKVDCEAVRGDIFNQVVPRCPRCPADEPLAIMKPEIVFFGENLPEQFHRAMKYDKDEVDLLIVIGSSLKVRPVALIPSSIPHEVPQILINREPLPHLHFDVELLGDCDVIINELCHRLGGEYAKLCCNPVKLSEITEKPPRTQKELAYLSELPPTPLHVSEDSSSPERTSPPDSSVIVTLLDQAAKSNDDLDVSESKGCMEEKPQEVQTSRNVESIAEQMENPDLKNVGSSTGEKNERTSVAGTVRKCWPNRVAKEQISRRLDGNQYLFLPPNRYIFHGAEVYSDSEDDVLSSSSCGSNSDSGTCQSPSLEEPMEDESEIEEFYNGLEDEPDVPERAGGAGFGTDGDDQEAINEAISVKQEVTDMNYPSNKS
experiment-notes: Mass spectrometry based SIRT1 deacetylation assay (activation)
Assay type: biochemical
condition-label: 10 nM SIRT1, 0.5 μM peptide substrate, 120 μM βNAD+, 25 min at 25° C.
measurement-label: EC1.5 (concentration of test compound that results in 150% activation of SIRT1)

compound | result
Cc1ccc(-c2ccc3cccc(NC(=O)c4cscn4)c3n2)cc1F [Compound 213] | A (EC1.5<1.0 uM)
O=C(Nc1cccc2ccc(-c3ccc(F)c(C(F)(F)F)c3)nc12)c1ccccn1 [Compound 154] | A (EC1.5<1.0 uM)
O=C(Nc1nccs1)c1cc(F)cc2ccc(-c3cccc(C(F)(F)F)c3)nc12 [Compound 62] | C (EC1.5>25 uM)
O=C(Nc1ccccn1)c1cccc2ncc(-c3cccc(OC(F)(F)F)c3)nc12 [Compound 127] | C (EC1.5>25 uM)

* * *

tested-system: SIRT1 (Homo sapiens)
experiment-notes: Mass spectrometry based SIRT1 deacetylation assay (activation)
Assay type: biochemical
condition-label: 10 nM SIRT1, 0.5 μM peptide substrate, 120 μM βNAD+, 25 min at 25° C.
measurement-label: EC1.5 (concentration of test compound that results in 150% activation of SIRT1)

Look over these answered cases.
compound | result
Fc1ccc(C(F)(F)F)cc1-c1ccc2cccc(NCc3cccnc3)c2n1 | C (EC1.5>25 uM)
Cc1nnc(NC(=O)c2cccc3ccc(-c4cccnc4)nc23)o1 | C (EC1.5>25 uM)
O=C(Nc1cccnc1)c1cccc2ccc(-c3ccc(C(F)(F)F)cc3)nc12 | C (EC1.5>25 uM)
O=C(Nc1ccc(CN2CCOCC2)nc1)c1cccc2ccc(-c3cccc(C(F)(F)F)c3)nc12 | A (EC1.5<1.0 uM)
Fc1cc(-c2ccc3cccc(NCc4cccnc4)c3n2)cc(C(F)(F)F)c1 | C (EC1.5>25 uM)
O=C(Nc1ccc(Cl)cn1)c1cccc2ccc(-c3cccc(C(F)(F)F)c3)nc12 | A (EC1.5<1.0 uM)
O=C(Nc1cnccn1)c1cccc2ccc(-c3cccc(C(F)(F)F)c3)nc12 | A (EC1.5<1.0 uM)

Next compound, please.
Task: Requested read-out: EC1.5 (concentration of test compound that results in 150% activation of SIRT1). Entry: Cc1cnc(NC(=O)c2cccc3ccc(-c4cccnc4)nc23)s1 [Compound 241]
Output: A (EC1.5<1.0 uM)

* * *

tested-system: SIRT1 (Homo sapiens)
experiment-notes: Mass spectrometry based SIRT1 deacetylation assay (activation)
Type: biochemical
condition-label: 10 nM SIRT1, 0.5 μM peptide substrate, 120 μM βNAD+, 25 min at 25° C.
measurement-label: EC1.5 (concentration of test compound that results in 150% activation of SIRT1)

Past entries and their recorded results:
compound | result
COC(=O)c1ccc(NC(=O)c2cccc3ccc(-c4cccc(C(F)(F)F)c4)nc23)o1 | A (EC1.5<1.0 uM)
O=C(Nc1ccncn1)c1cccc2ccc(-c3cccc(C(F)(F)F)c3)nc12 | A (EC1.5<1.0 uM)
O=C(Nc1cccc2ccc(-c3cccc(C(F)(F)F)c3)nc12)c1cccc(OC[C@@H](O)CO)c1 | A (EC1.5<1.0 uM)
Cc1cc(NC(=O)c2cccc3ccc(-c4cccnc4)nc23)sn1 | C (EC1.5>25 uM)
O=C(Nc1ccncc1)c1cccc2ccc(-c3cccc(N4CCOCC4)c3)nc12 | A (EC1.5<1.0 uM)
O=C(Nc1ccc(Cl)cn1)c1cccc2ccc(-c3cccc(N4CCOCC4)c3)nc12 | A (EC1.5<1.0 uM)
Cc1nnc(NC(=O)c2cccc3ccc(-c4cccnc4)nc23)s1 | C (EC1.5>25 uM)
O=C(Nc1ncnc2ccc(-c3cccc(C(F)(F)F)c3)nc12)c1ccc(CN2CCCC2)cc1 | B (EC1.5 1-25 uM)

Task: Identify the measured EC1.5 (concentration of test compound that results in 150% activation of SIRT1) of O=C(Nc1cccc2ccc(-c3cc(F)cc(C(F)(F)F)c3)nc12)c1ccncc1 for SIRT1 (Homo sapiens).
Output: C (EC1.5>25 uM)

Task: And for FC(F)(F)Oc1cccc(-c2ccc3cccc(NCC4CCCC4)c3n2)c1 ?
Output: C (EC1.5>25 uM)

Task: // query: O=C(Nc1ccc(Cl)cn1)c1cccc2ccc(-c3cccnc3)nc12
Output: C (EC1.5>25 uM)

Cited source: patent US8685970B2
